Assay: Competitive inhibition of thymidylate synthetase in mouse Ehrlich ascites tumor cells using 5-[3H]-dUMP as substrate after 7 mins by scintillation counting analysis
pKi: −log10 of the molar value.
value_type: pKi

1. [N-]=[N+]=NCc1cn([C@H]2C[C@H](O)[C@@H](COP(=O)(O)O)O2)c(=O)[nH]c1=O	5.30
2. O=c1[nH]c(=O)n([C@H]2C[C@H](O)[C@@H](COP(=O)(O)O)O2)cc1COCc1ccccc1	5.05
3. O=c1[nH]c(=O)n([C@H]2C[C@H](O)[C@@H](COP(=O)(O)O)O2)cc1CC1CO1 (stereo partly drawn)	4.85
4. COCc1cn([C@H]2C[C@H](O)[C@@H](COP(=O)(O)O)O2)c(=O)[nH]c1=O	4.72
5. CC(=O)c1cn([C@H]2C[C@H](O)[C@@H](COP(=O)(O)O)O2)c(=O)[nH]c1=O	4.66
6. O=c1[nH]c(=O)n([C@H]2C[C@H](O)[C@@H](COP(=O)(O)O)O2)cc1CO	6.22
7. O=Cc1cn([C@H]2C[C@H](O)[C@@H](COP(=O)(O)O)O2)c(=O)[nH]c1=O	7.10
8. C=CCc1cn([C@H]2C[C@H](O)[C@@H](COP(=O)(O)O)O2)c(=O)[nH]c1=O	4.40
